These entries and their values trace back to PubChem BioAssay (NCI).

test system: HCC-2998 colon; assay: NCI tumour cell line growth inhibition, 48 h
Items are presented alongside their recorded TGI.
property: TGI

In [3]: df
Out[3]:
                                    molecule  obs_value
 0  O=C(Cc1cc[n+]([O-])cc1)C(=O)Nc1cc(Cl)c(Cl)cc1Cl   > 100 µM
 1         CC/C=C\C/C=C\C/C=C\CCCCCCCC(=O)OC   > 100 µM
 2                   S=C(S)NCCNC(=S)S.[Cu+2]   > 100 µM
 3  C[CH2][Sn]([CH2]C)([O]C(=O)c1ccccc1F)[O]C(=O)c1ccccc1F   > 100 µM
 4  Cc1ncc([N+](=O)[O-])n1CCn1ccnc1[N+](=O)[O-]   > 100 µM
 5    CCC(=O)Nc1ccc(NCC(=O)Nc2ccc(Cl)cc2)cc1    26.7 µM
 6                 N#CC1(Nc2ccc(Br)cc2)CCCC1   > 100 µM
 7  CC1(C)Cc2c(cnn2-c2ccc(C(F)(F)F)cc2)-c2nc(-c3ccc(O)cc3)[nH]c21      30 µM
 8  NC(N)=NS(=O)(=O)c1ccc(NC(=O)c2cccc3c(=O)c4ccccc4[nH]c23)cc1   > 100 µM
 9              NC(N)=NN=C(c1ccccc1)c1ccccc1    20.4 µM
10  C=C1CC2(CC(c3ccccc3OC)OC(c3ccccc3OC)C2)OC1=O (configuration not stated)    5.92 µM
11  CC(=O)NNc1nc(C)c(C(=O)/C=C/C=C/c2ccccc2)s1   > 100 µM
12                  CCCCCC(=O)Nc1n[nH]nc1C#N   > 100 µM
13           Nc1ccc(S(=O)(=O)c2ccc(N)cc2)cc1   > 100 µM
14            COc1nc(-c2c[nH]c3ccccc23)cnc1N   > 100 µM
15     Cc1ccc(-c2cc(-c3ccccc3)nc(N)n2)c(O)c1   > 100 µM
16  CCOc1cc(F)c([N+](=O)[O-])cc1[N+](=O)[O-]    3.31 µM
17  CCCCCCCCCCc1c2nc(c(CCCCCCCCCC)c3ccc([nH]3)c(CCCCCCCCCC)c3ccc([nH]3)c(CCCCCCCCCC)c3nc1C=C3)C=C2   > 100 µM
18  NNC1=Nc2ccc(Cl)cc2C(=S)N2CSCC12 (configuration not stated)   > 100 µM
19  O=C1/C(=C/c2ccco2)N=C(c2ccccc2)N1c1ccc(S(=O)(=O)Nc2nccs2)cc1   > 100 µM
20  CC(C)(CNC(=O)/C(Cl)=C(/Cl)C(=O)O)CNC(=O)/C(Cl)=C(/Cl)C(=O)O   > 100 µM
21  C[C@]12CC[C@@H]3c4ccc(O)cc4CC[C@H]3[C@@H]1CC[C@@H]2NS(=O)(=O)c1ccc(Cl)cc1    23.8 µM

* * *

tested on: OVCAR-8 ovarian; assay: NCI tumour cell line growth inhibition, 48 h
# reported TGI; entries follow

compound	TGI
Cc1nnc2n1-c1ccccc1-c1[nH]c3ccccc3c1C2	> 100 µM
CCn1c(O)c(C=Nc2ccccc2)s/c1=N/Nc1ncc(CC(=O)Nc2ccccc2C)s1	> 100 µM
O=c1n(-c2ccc(Cl)c(Cl)c2)c(=O)n(-c2ccc(Cl)c(Cl)c2)c(=O)n1-c1ccc(Cl)c(Cl)c1	8.7 µM
CN[C@@H](C)C(=O)N[C@H]1CCS[C@H]2CC(C)(C)[C@@H](C(=O)N[C@H]3c4ccccc4C[C@H]3OCC#CC#CCO[C@@H]3Cc4ccccc4[C@@H]3NC(=O)[C@H]3N4C(=O)[C@@H](NC(=O)[C@H](C)NC)CCS[C@H]4CC3(C)C)N2C1=O	> 50 µM
CCOC(=O)CCc1cccc2c1oc1c(CCNC(=O)OCC3c4ccccc4-c4ccccc43)cccc12	> 100 µM
COC(=O)C1C(OS(=O)(=O)O)CCC2CN3CCc4c([nH]c5ccccc45)C3CC21 (centres undefined)	> 100 µM
C/C=C(/C)C(=O)O[C@H]1CCN2CC=C(COC(=O)[C@@](O)([C@H](C)OC)C(C)(C)O)[C@H]12	> 100 µM
O=C1C=CC(=O)C(CNc2ccc(C(=O)OC34CC5CC(CC(C5)C3)C4)cc2)=C1Br	23.9 µM
CNC(=O)c1ccccc1Nc1cc(Nc2ccc(N3CCOCC3)cc2OC)ncc1C(F)(F)F	> 100 µM
CC(=O)OC1CN2CCC1CC2 (centres undefined)	> 100 µM
CC1=C(C(=O)Nc2ccc(F)c(Cl)c2)C(c2cccc(Cl)c2)NC(=S)N1 (centres undefined)	> 50 µM
COc1ccc2[nH]c3c(C)c4ccncc4c(C)c3c2c1	1.92 µM
NS(=O)(=O)c1ccc(NC(=S)/N=C/c2c(O)c3ccccc3oc2=O)cc1	> 100 µM
CN(CCCNCc1ccccn1)Cc1ccccc1O	> 100 µM
CN=c1ssc(/N=C(\SC)N(C)C)[n+]1C	> 100 µM
C=C1CC2(CC(c3ccccc3OC)OC(c3ccccc3OC)C2)OC1=O (centres undefined)	3.56 µM
C=C(CBr)CCCOCc1ccccc1	32.2 µM
O=C1CC[C@H](NC(=O)Cc2ccccc2)C(=O)N1	> 1250 µM
COC(=O)c1oc([N+](=O)[O-])c(Cl)c1Cl	30.4 µM
COc1cccc(C2=C(c3cn(C)c4ccc(Cl)cc34)C(=O)NC2=O)c1	> 20.3 µM
C=C1CC(C)(COc2ccc3c(C)c(C)c(=O)oc3c2C)OC1=O (centres undefined)	7.69 µM
NC(CCC(=O)Nc1ccc(O)cc1)C(=O)O (centres undefined)	> 100 µM
OCCCC(O)(c1ccccc1)c1ccccc1	> 100 µM
CCOC(=O)[C@H]1O[C@@H]1C(=O)NC(CC(C)C)C(=O)NCCC(C)C (some centres undefined)	> 100 µM
Cc1cc2c(c(S(=O)(=O)c3ccc(Cl)cc3[N+](=O)[O-])c1)NCCC2	> 100 µM
Cc1cc(Cl)nc(Nc2nc3ccccc3[nH]2)n1	> 100 µM
COc1cc(Nc2ccnc(NCCNc3ccnc4cc(Cl)ccc34)n2)cc(OC)c1	11.5 µM
CCOc1ccc([Se][Se]c2ccc(OCC)cc2)cc1	> 100 µM
CCCCCCCCCCCCc1ccsc1-c1ccc(-c2ccc(-c3sc(-c4cc(CCCCCCCCCCCC)c(-c5ccc(-c6ccc(-c7sccc7CCCCCCCCCCCC)s6)s5)s4)cc3CCCCCCCCCCCC)s2)s1	> 100 µM
CN(C)CCn1c(=O)c2ccc(NCCCN(C)CCCNc3ccc4c(=O)n(CCN(C)C)c(=O)n5c6ccccc6c(=O)c3c45)c3c(=O)c4ccccc4n(c1=O)c23	0.49 µM
NC(N)=NN=C(c1ccccc1)c1ccccc1	39.8 µM
CCCCC(CCCCCC(CCCC)C1NC(C)Cc2cc(OC)c(OC)cc21)C1NC(C)Cc2cc(OC)c(OC)cc21 (centres undefined)	3.29 µM
COC1=CC(=O)N(C(=O)C2CSC(C(CO)NC(=O)c3csc(/C=N/O)n3)=N2)C1 (centres undefined)	> 100 µM
O=c1[nH]nc(-c2ccccc2)n1/N=C\CC/C=N\n1c(-c2ccccc2)n[nH]c1=O	> 86.9 µM
CC1CCC2C(C)(C)CC3(C)CCC1C23O (centres undefined)	34.4 µM
CCCCCCCCCCc1c2nc(c(CCCCCCCCCC)c3ccc([nH]3)c(CCCCCCCCCC)c3ccc([nH]3)c(CCCCCCCCCC)c3nc1C=C3)C=C2	> 100 µM
O=C1C(=O)c2cc([N+](=O)[O-])ccc2-c2ccc([N+](=O)[O-])cc21	1.27 µM
C[C@H]1[C@H](N2CCCC2)O[Si](C(C)(C)C)(C(C)(C)C)[C@@H]1C	> 100 µM
Cc1cc2c(O)c(c1)CN(Cc1ccccc1)Cc1cc(C)cc(c1O)CN(Cc1ccccc1)Cc1cc(C)cc(c1O)CN(Cc1ccccc1)C2	> 100 µM
